Measured values drawn from paper PMC4081100 for this set.

Biological target: GST-NST2(1-184) (Arabidopsis thaliana, UniProt Q9M274 1-184)
Sequence: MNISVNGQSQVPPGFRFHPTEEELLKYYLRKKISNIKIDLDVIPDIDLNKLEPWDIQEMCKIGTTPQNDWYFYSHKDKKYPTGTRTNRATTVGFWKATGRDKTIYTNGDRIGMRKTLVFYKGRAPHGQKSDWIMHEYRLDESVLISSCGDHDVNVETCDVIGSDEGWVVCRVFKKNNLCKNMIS
Test: universal protein binding microarray (PBM); high values mean tight binding
Conditions: protein: recombinant; tags: GST; chain copies: 2; dsDNA, one strand shown
Values of binding signal strictly less than 0.1 E-score map to YES, and values of at least 0.1 E-score map to NO.

Consider the following illustrative entries.
CCCTCCCC	NO
AGTCAAGG	YES
GCACGGAA	NO
AAGTCAGA	NO
TCGGTCAA	YES

Please examine the following record next.
// query Please check: binding signal for "AAGGTAAC" , strictly under 0.1 E-score or not?
// result NO

* * *

Target: GST-SND1(1-203) (Arabidopsis thaliana, UniProt Q9LPI7 1-203)
Sequence: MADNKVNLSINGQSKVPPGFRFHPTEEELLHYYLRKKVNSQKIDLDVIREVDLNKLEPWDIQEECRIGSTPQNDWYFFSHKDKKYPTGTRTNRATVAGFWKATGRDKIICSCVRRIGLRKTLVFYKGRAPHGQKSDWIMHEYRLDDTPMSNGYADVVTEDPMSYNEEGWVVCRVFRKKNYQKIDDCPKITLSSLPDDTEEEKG
Assay: universal protein binding microarray (PBM); high values mean tight binding
Conditions: protein: recombinant; tags: GST; chain copies: 2; dsDNA, one strand shown
measured-quantity: binding signal (E-score)
Numbers only, in E-score.

ACGCAAAT	0.325

Provide binding signal values for the following items, in order.
1. CGTTGACA
2. AGGAAACC
3. ACGTTACC
4. CACGACAC
5. CACGCGAA
6. CAACACGC
7. ATACGTAA
8. ATGGCGTA

// result
[0.0727, 0.0696, 0.462, 0.0543, 0.213, 0.259, 0.393, 0.452]

* * *

Biological target: GST-VND3 NAC domain (Arabidopsis thaliana, UniProt Q9FH59 12-162)
Sequence: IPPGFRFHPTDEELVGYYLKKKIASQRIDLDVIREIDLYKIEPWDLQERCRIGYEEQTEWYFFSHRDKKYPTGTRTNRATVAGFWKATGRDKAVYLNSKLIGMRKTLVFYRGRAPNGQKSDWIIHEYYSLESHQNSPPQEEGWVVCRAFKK
Test: universal protein binding microarray (PBM); high values mean tight binding
Details: protein: recombinant; tags: GST; chain copies: 2; dsDNA, one strand shown
Consider the following partition of reported binding signal into named classes: LOW = under 0.1 E-score, MID = from 0.1 E-score up to 0.3 E-score, HIGH = 0.3 E-score and over

Consider the following illustrative entries.
AGCGTAAG	MID
ATTGCGTA	HIGH
CAGGGAAA	LOW
CTATTGAC	LOW
ATTACTTA	MID

// query Sort into band: "ATGTCAAC"
// result LOW

// query Determine which band this sequence sits in: "ACGGCACC"
// result HIGH

// query Assign a category based on measured binding signal for "AATAGCGT" and give only the class name.
// result MID

// query Please indicate the class for "GTTGAGTA" based on its binding signal.
// result LOW

// query Tag the class for "TACCTTAA"
// result MID

// query Bin this entry: "AAGCAACC"
// result MID

// query Bin? "ATACGTCA"
// result HIGH

// query Note: place this sequence into its band. Item: "GTGACGTA"
// result HIGH

// query Record "CACGTAAG" — which class?
// result HIGH

// query State the band of "AATGTCAA"
// result MID

* * *

Target: GST-ANAC092(1-285) full length (Arabidopsis thaliana, UniProt Q9FKA0 1-285)
Sequence: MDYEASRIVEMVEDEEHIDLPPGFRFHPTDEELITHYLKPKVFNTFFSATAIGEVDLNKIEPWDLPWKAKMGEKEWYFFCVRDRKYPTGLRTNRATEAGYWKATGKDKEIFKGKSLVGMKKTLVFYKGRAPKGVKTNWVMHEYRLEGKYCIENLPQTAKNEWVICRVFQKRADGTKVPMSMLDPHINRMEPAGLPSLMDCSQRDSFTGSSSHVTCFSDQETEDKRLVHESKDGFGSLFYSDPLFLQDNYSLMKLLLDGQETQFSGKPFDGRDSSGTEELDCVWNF
Assay: universal protein binding microarray (PBM); high values mean tight binding
Details: protein: recombinant; tags: GST; chain copies: 2; dsDNA, one strand shown
measured-quantity: binding signal (E-score)
Numbers only, in E-score.

GTCAGTCA	0.1
ACGCCACC	0.472
CACGTAAC	0.467
CACGTTAG	0.412
CAAGTCAG	0.11
AAAAGTCA	0.241
AAGTAAAG	0.32
AAGTAATC	0.37
AGTAAGTA	0.184
GACGTGTA	0.437

Batch request: binding signal per item, same order as input.
1. CGTGCACG
2. AAGGAAGC
3. CACGCATC
4. GTCAAAAA

// result
1: 0.418; 2: 0.13; 3: 0.44; 4: 0.0617

For each entry beneath this line, provide reported binding signal.
1. AAACACGC
2. GAATTGAC
3. ATACGTCA
4. GATACGTA
5. CACACGCA
6. AAATTGAC
7. GCAAGGAA

// result
1: 0.442; 2: 0.0675; 3: 0.435; 4: 0.385; 5: 0.47; 6: 0.139; 7: 0.371

I have 7 sequences here; please give me binding signal for each one.
1. AATAGCGT
2. GTCAAGTA
3. GTCGTTGA
4. ACGCTATC
5. AGGTAACC
6. ATTAAGTA
7. CTGTTGAC

// result
1: 0.412; 2: 0.186; 3: 0.0529; 4: 0.454; 5: 0.137; 6: 0.144; 7: 0.0644

Below is a list of sequences. For each, state its recorded binding signal.
1. CACGCCAA
2. AGGAAACG
3. AGTCAAAA
4. ACACGTTA
5. GTACGAAA

// result
[0.451, 0.132, 0.0672, 0.485, 0.413]

List binding signal for every entry below, keeping the order given.
1. CACGACAC
2. CGTACGCA
3. GTCAAACA
4. TACGCTAA
5. GAAAGGAA
6. AATACGCA
7. AGTCAATC
8. ACACGATA

// result
0.355
0.433
0.11
0.44
0.2
0.431
0.0868
0.417

Hi, could you look up binding signal for each item in my list?
1. AAGGTAAG
2. CGAGGAAA

// result
[0.225, 0.131]

Can you give me binding signal for all of these, one by one?
1. GCGTGGAC
2. GCACGGAA

// result
[0.19, 0.413]

// query Param readout= binding signal; system= GST-ANAC092(1-285) full length (Arabidopsis thaliana, UniProt Q9FKA0 1-285); entry= "AGATTGAC" ; returns value.
// result 0.15

* * *

Target: GST-ANAC092(1-285) full length (Arabidopsis thaliana, UniProt Q9FKA0 1-285)
Sequence: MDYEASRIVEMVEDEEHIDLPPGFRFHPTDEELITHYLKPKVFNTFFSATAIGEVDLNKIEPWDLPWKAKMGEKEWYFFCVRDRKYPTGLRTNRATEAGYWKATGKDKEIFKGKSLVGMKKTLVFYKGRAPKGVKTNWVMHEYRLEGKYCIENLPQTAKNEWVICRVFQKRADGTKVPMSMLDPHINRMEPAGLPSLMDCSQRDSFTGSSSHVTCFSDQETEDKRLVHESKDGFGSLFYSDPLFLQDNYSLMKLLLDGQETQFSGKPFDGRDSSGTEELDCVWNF
Test: universal protein binding microarray (PBM); high values mean tight binding
Conditions: protein: recombinant; tags: GST; chain copies: 2; dsDNA, one strand shown
Where binding signal equals or exceeds 0.4 E-score, the correct label is met; where it does not, the label is not met.

TATCGTAA	not met
GTACGTCA	met
CTTACTTC	not met
GATTGACC	not met
AAGGAAAG	not met

// query Hello, I need to know if "ACGCTAAC" has measured binding signal not below 0.4 E-score. Thanks!
// result met

// query Is it the case that "GCACGCAA" has binding signal reaching or exceeding 0.4 E-score?
// result met

* * *

What binding signal was measured for each of the following?
Biological target: GST-VND7 NAC domain (Arabidopsis thaliana, UniProt Q9C8W9 9-158)
Sequence: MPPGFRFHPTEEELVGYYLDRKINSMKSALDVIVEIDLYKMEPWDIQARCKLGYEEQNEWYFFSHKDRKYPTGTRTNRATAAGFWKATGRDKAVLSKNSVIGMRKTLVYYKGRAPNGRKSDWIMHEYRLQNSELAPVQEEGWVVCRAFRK
Assay: universal protein binding microarray (PBM); transcription factors of Arabidopsis thaliana; high values mean tight binding
Conditions: protein: recombinant; tags: GST; chain copies: 2; dsDNA, one strand shown
Answers are plain numbers, in E-score.

AGCGTGTA	0.163
TGGCGTAA	0.246
GTCAAATA	0.139

Give binding signal for all sequences that follow.
1. ACGCAACT
2. ATTGACTG
3. ATTGCTTA

// result
0.462
0.05
0.172

Your task in this section: give binding signal for each listed record.
1. AATGTCAA
2. GTTTCGTA
3. ATACGAAA
4. ATTGCTTC
5. CACGGAAG
6. AGGGTAAA
7. ACGTAACA
8. ACGTTAGC

// result
1. 0.0638
2. 0.124
3. 0.205
4. 0.213
5. 0.428
6. 0.108
7. 0.419
8. 0.128

The following sequences each have a reported value; give each one's binding signal.
1. TGCGTACA
2. CTACGTCA
3. GCACGCAA
4. AAGTAATC
5. TTAAGCAA
6. AAGGTAAC
7. AGGTCAGC
8. AAACGTGT

// result
1. 0.281
2. 0.176
3. 0.431
4. 0.136
5. 0.227
6. 0.194
7. 0.078
8. 0.306

For each entry beneath this line, provide reported binding signal.
1. CACGGCTC
2. AATGCCGT
3. GATTGACC
4. ACGTAAAC
5. AACGTAGA
6. GTCAACGA
7. AAAGCAAC

// result
1. 0.377
2. 0.4
3. 0.059
4. 0.266
5. 0.184
6. 0.104
7. 0.145
